The reported measurements were obtained from ChEMBL document CHEMBL5665443.

TESTED_TARGET: N-glycosylase/DNA lyase (Homo sapiens) (UniProt O15527);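 note: OGG1 cleavage of a quenched duplex DNA oligonucleotide, coupled to APE1 for strand incision, read as fluorescence at 594 nm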
Sequence (O15527 whole entry): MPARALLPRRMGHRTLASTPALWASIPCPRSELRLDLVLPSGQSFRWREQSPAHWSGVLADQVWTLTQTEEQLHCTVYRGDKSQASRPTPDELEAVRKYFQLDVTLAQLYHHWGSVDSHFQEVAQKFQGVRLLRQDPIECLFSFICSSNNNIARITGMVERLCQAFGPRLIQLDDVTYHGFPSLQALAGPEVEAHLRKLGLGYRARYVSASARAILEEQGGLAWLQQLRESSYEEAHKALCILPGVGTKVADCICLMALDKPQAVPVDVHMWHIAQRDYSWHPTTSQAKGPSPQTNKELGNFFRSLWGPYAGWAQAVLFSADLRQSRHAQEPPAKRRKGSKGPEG
SETUP_CONDITIONS: Compound Concentration 1.0 uM, Hit No
Description: Inhibition of OGG1 by quantifying inhibition of OGG1-mediated cleavage and dissociation of quenched duplex DNA oligonucleotides, measured as fluorescence at 594 nm. To generate a functional strand incision and increase turn-over this assay is coupled to APE1.
Measured inhibition values are reported for all entries that follow.
Please reply with the bare figure in % and do not write the unit itself.

These solved cases illustrate the format of a correct answer.
INSERT INTO results (line_notation, unit, reported_measurement) VALUES
  ('CN(C)C(=O)Cn1cc(-c2ccc(-c3cncc4ccccc34)cc2)cn1', '%', -1.89),
  ('CCCCN(CCCC)C(=O)CN1C[C@H](c2cc(OC)c3c(c2)OCO3)[C@@H](C(=O)O)[C@@H]1CC(C)(C)CCC', '%', 14.6),
  ('COc1cc(N[C@@H]2CCCC[C@]2(O)C(F)(F)F)ccc1F', '%', 1.9),
  ('Cn1cc(Cl)c2c(Oc3c(F)cc(Nc4cc(Cl)nc(N)n4)cc3F)ccnc21', '%', -2.36),
  ('CNc1nc(Nc2cnn([C@H]3CCN(C4COC4)C[C@@H]3F)c2Cl)ncc1C(F)(F)F', '%', -2.93),
  ('CN(C)C(=O)Cn1cc(-c2ccc(-c3nnc4ccccn34)cc2)cn1', '%', 3.29),
  ('Cc1ccc(C(=O)Nc2cccc(C(F)(F)F)c2)cc1Nc1nc(-c2cccnc2)nc2c1cnn2C', '%', 5.38),
  ('Cc1cc(C)c(-n2ccn3nc(-c4cccnc4)cc23)cc1NC(=O)c1cc(C#N)cc(S(F)(F)(F)(F)F)c1', '%', 1.96);

Please give the documented inhibition of `Cc1c(NC(=O)c2cc(C(N)=O)nc3cc(F)ccc23)c(C(F)(F)F)nn1Cc1ccc(C(C)(C)C)cc1`
-8.67
